Test system: NCI-H23
assay-method-text: NCI tumour cell line growth inhibition, 48 h
Active and inactive are the calls of the source. Cut-off read from the data, not from the text of the source: active = GI50 up to about 1.1 µM and inactive = higher.
Respond with a class label; see active, inactive

- molecule: "CC1(c2ccc(F)cc2)CC(c2ccc(F)cc2)=C(C#N)C(=C(C#N)C#N)N1 (configuration not stated)"
  system-tested: "NCI-H23"
  class: "inactive"
- molecule: "Cc1nc2ccccc2c(=O)n1NC(=S)Nc1cccc(Cl)c1"
  system-tested: "NCI-H23"
  class: "inactive"
- molecule: "CN(C)[C@H]1CC[C@H]2[C@@H]3CCC4C[C@@H](NC(=O)NC(Cc5ccccc5)c5nccs5)CC[C@]4(C)[C@H]3CC[C@]12C (some centres not stated)"
  system-tested: "NCI-H23"
  class: "inactive"
- molecule: "Cn1c2c(c3ccccc31)CC(=O)N1CCCCC1C21OCCO1 (configuration not stated)"
  system-tested: "NCI-H23"
  class: "inactive"
- molecule: "CC(=O)Oc1ccc2c(c1OC(C)=O)CCC1C2=CC[C@]2(C)C(=O)CCC12 (some centres not stated)"
  system-tested: "NCI-H23"
  class: "inactive"

Prompt line: Write down the call the test reported for this molecule. Item: COc1cc2c(c(OC)c1OC)-c1ccc(SC)c(=O)cc1C(CO)C2 (configuration not stated)
Response line: active

Prompt line: Now the same for CC(=O)NC1C(CO)O[C@@H]2OC(C)(C)O[C@H]12 (some centres not stated)
Response line: inactive

---

System: OVCAR-3
assay-method-text: NCI tumour cell line growth inhibition, 48 h
The source made the active and inactive calls. No stated cut-off is given here; in the data, active = GI50 up to about 1.1 µM and inactive = higher.
Measured GI50 by item

Here is how some compounds turned out for GI50.
- compound: "Nc1ccc(-c2nc3ccccc3s2)cc1Cl"
  GI50: "< 0.01 µM (active)"
- compound: "CC(C)(CO)NC1=C(Cl)C(=O)c2c(O)ccc(O)c2C1=O"
  GI50: "1.55 µM (inactive)"
- compound: "O=C(Nc1ccc(N=C=S)cc1Cl)c1cc(Br)cc(Br)c1O"
  GI50: "36.7 µM (inactive)"

Prompt line: Identify the measured GI50 of COc1ccc(C(=O)C(c2ccc(OC)cc2)C2OC(=O)C(Cl)=C2Cl)cc1 (configuration not stated) for OVCAR-3.
Response line: > 100 µM (inactive)

Prompt line: `O=[S@@]1Nc2ccc(Br)cc2S1` ?
Response line: 31.2 µM (inactive)

Prompt line: Further, for CC(C)(C)[Si](C)(C)OCC1OC(n2cnc3c(=O)[nH]c(N)nc32)C(O[Si](C)(C)C(C)(C)C)C1O[Si](C)(C)C(C)(C)C (configuration not stated) ?
Response line: 1.47 µM (inactive)

Prompt line: And CC1CNC(c2ccc(COc3ccc(C4=NC(C)CN4)cc3)cc2)=N1 (configuration not stated) ?
Response line: 34.9 µM (inactive)

---

Test system: MDA-N
assay-method-text: NCI tumour cell line growth inhibition, 48 h
Calls of active or inactive are those of the source. Rule as the data show it: active = GI50 up to about 1.1 µM and inactive = higher.
Hello, when you answer, please use one of the following outcomes: active, inactive

- compound: "C[C@]12CC[C@@H]3c4ccc(OP(=O)(O)O)cc4CC[C@H]3[C@@H]1CCC2=O"
  system-tested: "MDA-N"
  class: "inactive"

Attention now turns to another entry.
Prompt line: What did the test return for `O=C(O)CCCSc1nc2ccccc2s1` ?
Response line: inactive

---

Tested on: BT-549
assay-method-text: NCI tumour cell line growth inhibition, 48 h
The source made the active and inactive calls. No stated cut-off is given here; in the data, active = GI50 up to about 1.1 µM and inactive = higher.
Just give me one of these, please: active, inactive

- compound: "CN(C)CCCN1c2ccccc2Sc2ccc3ccccc3c21"
  system-tested: "BT-549"
  class: "inactive"
- compound: "CC(=O)c1cccc2c1CC1(C2)Cc2ccc3c(c2C1=O)CCC3 (centres undefined)"
  system-tested: "BT-549"
  class: "inactive"
- compound: "Cn1c2cn[nH]c(=O)c2c2ccc3ccccc3c21"
  system-tested: "BT-549"
  class: "inactive"
- compound: "N=C(N)N/N=C/c1c(-c2ccc(Cl)cc2)nc2sccn12"
  system-tested: "BT-549"
  class: "inactive"
- compound: "C=C[C@@H](C)[C@H](NS(=O)(=O)c1ccc(C)cc1)C(=O)OCC"
  system-tested: "BT-549"
  class: "inactive"
- compound: "Cc1n[nH]c(=O)n1/N=C/c1cccs1"
  system-tested: "BT-549"
  class: "inactive"

Prompt line: Given `COc1ccc(CNc2nc(NCc3ccc(OC)c(OC)c3)nc(NC3CCCCC3)n2)cc1` , state the outcome it received in this test.
Response line: inactive

Prompt line: Same question for COc1ccc(-c2oc3cc(OC)c(OC)c(OC)c3c(=O)c2OC)cc1OC [HEXAMETHOXYFLAVONE] please.
Response line: inactive

Prompt line: // query: `CC(C)(C)OC/C=C(\Br)CO`
Response line: inactive

Prompt line: # repeat for `Oc1cc(-c2cccc(Cl)c2)nc2ncccc12`
Response line: inactive

Prompt line: What do you have for `CN(CCCNC(=O)c1cn(C)c2c1ccc1cc(Cl)c(Cl)cc12)CCCNC(=O)c1cn(C)c2c1ccc1cc(Cl)c(Cl)cc12` ?
Response line: inactive

Prompt line: Same lookup for CC1=CC(=O)[C@@H](O)[C@]2(C)[C@H]3[C@@]4(O)OC[C@@]35[C@@H](C[C@@H]12)OC(=O)C(OC(=O)CC1=CCCC1)[C@H]5[C@@H](C)[C@H]4O (some centres undefined) , please.
Response line: active

Prompt line: How about this compound: `CCNC(=O)Nc1cccc(C)n1`
Response line: inactive

Prompt line: And what about the compound `CC(=O)c1cccc(NC(=O)C(=O)NNc2nnc(S)n2N)c1` ?
Response line: inactive

Cited source: ChEMBL document CHEMBL1201862
